Each recorded value in this set is attributed to patent US9115127B2.

TARGET: wild-type human ALK (cytoplasmic domain, amino acids 1058-1620, N-terminal GST fusion) (Homo sapiens)
Construct: The cytoplasmic domain (amino acids 1058-1620) of wild-type human ALK; GST (N); made in house; host or cells: SF9 insect cells
Sequence (Q9UM73 1058-1620): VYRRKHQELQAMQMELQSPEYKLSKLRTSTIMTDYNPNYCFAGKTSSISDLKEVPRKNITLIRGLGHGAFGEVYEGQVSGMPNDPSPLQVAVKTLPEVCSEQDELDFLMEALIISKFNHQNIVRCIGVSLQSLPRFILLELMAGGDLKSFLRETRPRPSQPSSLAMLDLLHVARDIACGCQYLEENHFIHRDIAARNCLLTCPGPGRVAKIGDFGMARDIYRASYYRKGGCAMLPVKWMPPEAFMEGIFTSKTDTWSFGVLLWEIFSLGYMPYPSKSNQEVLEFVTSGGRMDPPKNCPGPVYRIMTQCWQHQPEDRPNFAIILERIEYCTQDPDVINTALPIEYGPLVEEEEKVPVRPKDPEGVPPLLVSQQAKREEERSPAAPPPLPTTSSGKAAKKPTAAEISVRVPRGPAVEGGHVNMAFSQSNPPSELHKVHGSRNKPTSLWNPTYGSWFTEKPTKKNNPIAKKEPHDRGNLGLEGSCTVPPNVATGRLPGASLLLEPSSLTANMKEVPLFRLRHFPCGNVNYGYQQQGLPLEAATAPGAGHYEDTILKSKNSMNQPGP
EXPERIMENT: ALK Inhibition in Enzyme Assay (Lance TR-FRET kinase assay)
Assay type: biochemical
pIC50: −log10 of the molar value.
What pIC50 was measured for each of the following?

- MOLECULE: "N#C[C@]1(c2ccccn2)C[C@H](n2/c(=N/C(=O)c3ccc(F)cc3)[nH]c3cnc(OCCN4CCCCC4)cc32)C1"
  READOUT KIND: "pIC50"
  VALUE: "6.00 to 7.00"
- MOLECULE: "CC(C)(O)C1CCN(Cc2ccc3[nH]/c(=N\\C(=O)c4ccc(F)cc4)n([C@H]4CC[C@]5(CC4)NC(=O)NC5=O)c3c2)CC1"
  READOUT KIND: "pIC50"
  VALUE: "6.00 to 7.00"
- MOLECULE: "CC(C)NC(=O)[C@H]1CC[C@@H](n2/c(=N/C(=O)c3ccc(F)cc3)[nH]c3ccc(CN4CCCC(C(N)=O)C4)cc32)CC1 (stereo partly shown)"
  READOUT KIND: "pIC50"
  VALUE: "> 7.30"
- MOLECULE: "CC(C)NC(=O)[C@H]1CC[C@@H](n2/c(=N/C(=O)c3ccc(F)cc3)[nH]c3ccc(O)cc32)CC1"
  READOUT KIND: "pIC50"
  VALUE: "> 7.30"
- MOLECULE: "CC(C)N(C)C(=O)[C@H]1CC[C@@H](n2/c(=N/C(=O)c3ccc(F)cc3)[nH]c3ccc(CN4CCCCC4)cc32)CC1"
  READOUT KIND: "pIC50"
  VALUE: "> 7.30"

Consider the following items and state reported pIC50 for each.
1. O=C(Nc1nc2ccc(CO)cc2n1C12CC3CC(CC(C3)C1)C2)c1ccccc1
2. C=CCNS(=O)(=O)c1cc(C(=O)/N=c2\[nH]c3ccc(CN4CCCCC4)cc3n2[C@H]2CC[C@@H](C(N)=O)CC2)ccc1F

A.
1: 6.00 to 7.00; 2: > 7.30
